Values were extracted from patent US5294611A.

# System: Angiotensin II (AII) vasopressor response
# assay_method_text: AII Challenge: antagonism of angiotensin II vasopressor response in conscious spontaneously hypertensive rats
# Format: in vivo, rat (male okamoto-Aoki SHR)
# details: SHR n=2; 5 mg/kg P.O.; AII 0.1 mcg/kg IV; 60 min post dose
Would you mind telling me the reported Average Change of each entry?
// return numeric value only (unit: mmHg, not printed)

Data request: State its Average Change for this molecule: CCCCc1nc2ccc([C@H]3[C@@H]4C(=O)OC[C@@H]4ON3C)cc2c(=O)n1Cc1ccc(-c2ccccc2-c2nnn[nH]2)cc1 (relative stereo)
Data returned: 20

Data request: State its Average Change for this molecule: CCCCc1nc2ccc([C@H]3[C@@H]4C(=O)CC[C@@H]4ON3C)cc2c(=O)n1Cc1ccc(-c2ccccc2-c2nnn[nH]2)cc1 (relative stereo)
Data returned: 12.5

Data request: State its Average Change for this molecule: CCCCc1nc2ccc([C@H]3[C@@H]4CCC[C@@H]4ON3C)cc2c(=O)n1Cc1ccc(-c2ccccc2-c2nnn[nH]2)cc1 (relative stereo)
Data returned: 29

Data request: State its Average Change for this molecule: CCCCc1nc2ccc([C@@H]3[C@H]4C(=O)CCC[C@H]4ON3C)cc2c(=O)n1Cc1ccc(-c2ccccc2-c2nnn[nH]2)cc1 (relative stereo)
Data returned: 30

* * *

# System: Angiotensin II (AII) vasopressor response
# assay_method_text: AII Challenge: antagonism of angiotensin II vasopressor response in conscious spontaneously hypertensive rats
# Type: in vivo, rat (male okamoto-Aoki SHR)
# details: Rattus norvegicus, po, […], SHR n=2; 5 mg/kg P.O.; AII 0.1 mcg/kg IV; 90 min post dose; read-out: Inhibition
assay_readout: inhibition in vivo at 5 mg/kg (%)
// return numeric value only (unit: %, not printed)

Data request: State its inhibition in vivo at 5 mg/kg for this molecule: CCCCc1nc2ccc([C@H]3[C@@H]4CCC[C@@H]4ON3C)cc2c(=O)n1Cc1ccc(-c2ccccc2-c2nnn[nH]2)cc1 (relative stereo)
Data returned: 52

Data request: State its inhibition in vivo at 5 mg/kg for this molecule: CCCCc1nc2ccc([C@H]3[C@@H]4C(=O)CC[C@@H]4ON3C)cc2c(=O)n1Cc1ccc(-c2ccccc2-c2nnn[nH]2)cc1 (relative stereo)
Data returned: 85

Data request: State its inhibition in vivo at 5 mg/kg for this molecule: CCCCc1nc2ccc([C@@H]3[C@H]4C(=O)CCC[C@H]4ON3C)cc2c(=O)n1Cc1ccc(-c2ccccc2-c2nnn[nH]2)cc1 (relative stereo)
Data returned: 59

Data request: State its inhibition in vivo at 5 mg/kg for this molecule: CCCCc1nc2ccc([C@H]3[C@@H]4C(=O)OC[C@@H]4ON3C)cc2c(=O)n1Cc1ccc(-c2ccccc2-c2nnn[nH]2)cc1 (relative stereo)
Data returned: 76

* * *

# Test system: Angiotensin II (AII) vasopressor response
# assay_method_text: AII Challenge: antagonism of angiotensin II vasopressor response in conscious spontaneously hypertensive rats
# Assay type: in vivo, rat (male okamoto-Aoki SHR)
# details: SHR n=2; 3 mg/kg I.V.; AII 0.1 mcg/kg IV; 90 min post dose
assay_readout: Average Change (mmHg)
// return numeric value only (unit: mmHg, not printed)

Data request: Jot down Average Change (Angiotensin II (AII) vasopressor response) of CCCCc1nc2ccc([C@H]3[C@@H]4C(=O)OC[C@@H]4ON3Cc3ccccc3)cc2c(=O)n1Cc1ccc(-c2ccccc2-c2nnn[nH]2)cc1 (relative stereo) .
Data returned: 10

Data request: Jot down Average Change (Angiotensin II (AII) vasopressor response) of CCCCc1nc2ccc([C@H]3[C@@H]4CCCCCC[C@@H]4ON3C)cc2c(=O)n1Cc1ccc(-c2ccccc2-c2nnn[nH]2)cc1 (relative stereo) .
Data returned: 20

Data request: Jot down Average Change (Angiotensin II (AII) vasopressor response) of CCCCc1nc2ccc([C@@H]3[C@@H]4C(=O)OC[C@@H]4ON3Cc3ccccc3)cc2c(=O)n1Cc1ccc(-c2ccccc2-c2nnn[nH]2)cc1 (relative stereo) .
Data returned: 5

* * *

Would you mind telling me the reported inhibition in vivo at 3 mg/kg of each entry?
# Test system: Angiotensin II (AII) vasopressor response
# assay_method_text: AII Challenge: antagonism of angiotensin II vasopressor response in conscious spontaneously hypertensive rats
# Format: in vivo, rat (male okamoto-Aoki SHR)
# details: Rattus norvegicus, iv, 1 h, SHR n=2; 3 mg/kg I.V.; AII 0.05 mcg/kg IV; 60 min post dose; read-out: Inhibition
// return numeric value only (unit: %, not printed)

Data request: State its inhibition in vivo at 3 mg/kg for this compound: CCCCc1nc2ccc([C@H]3[C@@H]4C(=O)CC[C@@H]4ON3Cc3ccccc3)cc2c(=O)n1Cc1ccc(-c2ccccc2-c2nnn[nH]2)cc1 (relative stereo)
Data returned: 100

Data request: State its inhibition in vivo at 3 mg/kg for this compound: CCCCc1nc2ccc([C@@H]3[C@@H]4C(=O)OC[C@@H]4ON3Cc3ccccc3)cc2c(=O)n1Cc1ccc(-c2ccccc2-c2nnn[nH]2)cc1 (relative stereo)
Data returned: 100

Data request: State its inhibition in vivo at 3 mg/kg for this compound: CCCCc1nc2ccc([C@H]3[C@@H]4C5CCC(C5)[C@@H]4ON3C)cc2c(=O)n1Cc1ccc(-c2ccccc2-c2nnn[nH]2)cc1 (stereo partly drawn)
Data returned: 63

* * *

# System: Angiotensin II (AII) vasopressor response
# assay_method_text: AII Challenge: antagonism of angiotensin II vasopressor response in conscious spontaneously hypertensive rats
# Type: in vivo, rat (male okamoto-Aoki SHR)
# details: SHR n=2; 3 mg/kg I.V.; AII 0.1 mcg/kg IV; 60 min post dose
Would you mind telling me the reported Average Change of each entry?

Data request: Jot down Average Change (Angiotensin II (AII) vasopressor response) of CCCCc1nc2ccc([C@H]3[C@@H]4C(=O)CC[C@@H]4ON3C)cc2c(=O)n1Cc1ccc(-c2ccccc2-c2nnn[nH]2)cc1 (relative stereo) [Example 48] .
Data returned: 6 mmHg

Data request: Jot down Average Change (Angiotensin II (AII) vasopressor response) of CCCCc1nc2ccc(C3CC4CCCCN3O4)cc2c(=O)n1Cc1ccc(-c2ccccc2-c2nnn[nH]2)cc1 (stereo not drawn) [Example 18] .
Data returned: 20 mmHg

Data request: Jot down Average Change (Angiotensin II (AII) vasopressor response) of CCCCc1nc2ccc([C@H]3[C@@H]4C(=O)CC[C@@H]4ON3Cc3ccccc3)cc2c(=O)n1Cc1ccc(-c2ccccc2-c2nnn[nH]2)cc1 (relative stereo) [Example 55] .
Data returned: 2.5 mmHg

Data request: Jot down Average Change (Angiotensin II (AII) vasopressor response) of CCCCc1nc2ccc([C@H]3[C@@H]4C5CCC(C5)[C@@H]4ON3C)cc2c(=O)n1Cc1ccc(-c2ccccc2-c2nnn[nH]2)cc1 (stereo partly drawn) [Example 51] .
Data returned: 11 mmHg

Data request: Jot down Average Change (Angiotensin II (AII) vasopressor response) of CCCCc1nc2ccc([C@H]3[C@@H]4CCCCCC[C@@H]4ON3C)cc2c(=O)n1Cc1ccc(-c2ccccc2-c2nnn[nH]2)cc1 (relative stereo) [Example 52] .
Data returned: 17.5 mmHg

Data request: Jot down Average Change (Angiotensin II (AII) vasopressor response) of CCCCc1nc2ccc([C@H]3[C@@H]4C(=O)OC[C@@H]4ON3C)cc2c(=O)n1Cc1ccc(-c2ccccc2-c2nnn[nH]2)cc1 (relative stereo) [Example 53] .
Data returned: 2.5 mmHg

* * *

# System: Angiotensin II (AII) vasopressor response
# assay_method_text: AII Challenge: antagonism of angiotensin II vasopressor response in conscious spontaneously hypertensive rats
# Type: in vivo, rat (male okamoto-Aoki SHR)
# details: Rattus norvegicus, iv, […], SHR n=2; 3 mg/kg I.V.; AII 0.1 mcg/kg IV; 90 min post dose; read-out: Inhibition
assay_readout: inhibition in vivo at 3 mg/kg (%)
// return numeric value only (unit: %, not printed)

Data request: State its inhibition in vivo at 3 mg/kg for this compound: CCCCc1nc2ccc([C@H]3[C@@H]4C(=O)CC[C@@H]4ON3C)cc2c(=O)n1Cc1ccc(-c2ccccc2-c2nnn[nH]2)cc1 (relative stereo) [Example 48]
Data returned: 76

Data request: State its inhibition in vivo at 3 mg/kg for this compound: CCCCc1nc2ccc([C@H]3[C@@H]4CCC[C@@H]4ON3C)cc2c(=O)n1Cc1ccc(-c2ccccc2-c2nnn[nH]2)cc1 (relative stereo) [Example 50]
Data returned: 52

Data request: State its inhibition in vivo at 3 mg/kg for this compound: CCCCc1nc2ccc([C@H]3[C@@H]4C(=O)OC[C@@H]4ON3C)cc2c(=O)n1Cc1ccc(-c2ccccc2-c2nnn[nH]2)cc1 (relative stereo) [Example 53]
Data returned: 66

Data request: State its inhibition in vivo at 3 mg/kg for this compound: CCCCc1nc2ccc([C@H]3[C@@H]4CCCCCC[C@@H]4ON3C)cc2c(=O)n1Cc1ccc(-c2ccccc2-c2nnn[nH]2)cc1 (relative stereo) [Example 52]
Data returned: 53

Data request: State its inhibition in vivo at 3 mg/kg for this compound: CCCCc1nc2ccc([C@H]3[C@@H]4C5CCC(C5)[C@@H]4ON3C)cc2c(=O)n1Cc1ccc(-c2ccccc2-c2nnn[nH]2)cc1 (stereo partly drawn) [Example 51]
Data returned: 80

Data request: State its inhibition in vivo at 3 mg/kg for this compound: CCCCc1nc2ccc([C@H]3[C@@H]4C(=O)CC[C@@H]4ON3Cc3ccccc3)cc2c(=O)n1Cc1ccc(-c2ccccc2-c2nnn[nH]2)cc1 (relative stereo) [Example 55]
Data returned: 91

Data request: State its inhibition in vivo at 3 mg/kg for this compound: CCCCc1nc2ccc([C@H]3[C@@H]4C(=O)OC[C@@H]4ON3Cc3ccccc3)cc2c(=O)n1Cc1ccc(-c2ccccc2-c2nnn[nH]2)cc1 (relative stereo) [Example 57]
Data returned: 75

Data request: State its inhibition in vivo at 3 mg/kg for this compound: CCCCc1nc2ccc([C@@H]3[C@@H]4C(=O)OC[C@@H]4ON3Cc3ccccc3)cc2c(=O)n1Cc1ccc(-c2ccccc2-c2nnn[nH]2)cc1 (relative stereo) [Example 56]
Data returned: 89

Data request: State its inhibition in vivo at 3 mg/kg for this compound: CCCCc1nc2ccc(C3CC4CCCCN3O4)cc2c(=O)n1Cc1ccc(-c2ccccc2-c2nnn[nH]2)cc1 (stereo not drawn) [Example 18]
Data returned: 45
